Just for reference, PubChem BioAssay is where these values come from.

experimental.target: L-lactate dehydrogenase (Plasmodium falciparum (isolate CDC / Honduras)) (UniProt Q27743)
Sequence (Q27743 whole entry, looked up): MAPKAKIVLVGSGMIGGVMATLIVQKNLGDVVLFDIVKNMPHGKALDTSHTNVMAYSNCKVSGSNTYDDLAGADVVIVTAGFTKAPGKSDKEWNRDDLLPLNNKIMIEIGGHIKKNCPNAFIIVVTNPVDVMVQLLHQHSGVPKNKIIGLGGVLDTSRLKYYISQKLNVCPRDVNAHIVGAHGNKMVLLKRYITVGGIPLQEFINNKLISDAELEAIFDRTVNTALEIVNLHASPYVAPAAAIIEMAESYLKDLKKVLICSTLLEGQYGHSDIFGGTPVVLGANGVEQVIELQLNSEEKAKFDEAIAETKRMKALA
method.description: PfLDH activity inhibition – cell lysate, 3D7 strain, counter-screen for P. falciparum growth inhibition project (AID 2304);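 note: 0% = vehicle and 100% = reference inhibitor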
assay.context: P. falciparum 3D7 crude extract, LDH APAD/NBT absorbance; at 2 µM; hits give high values

[
  {
    "molecule": "O=C(N[C@@H](Cc1ccccc1)[C@H](O)CNC1CCc2ccccc2C1)c1cc(C2CCCC2)cc(N2CCCC2=O)c1 (some centres not stated)",
    "inhibition / %": -4
  },
  {
    "molecule": "CCc1nc(N)nc(N)c1CCCOc1ccccc1Cl",
    "inhibition / %": 1
  },
  {
    "molecule": "Cc1cc(-c2cccc(CNC3CCCC3)c2)ccc1S(=O)(=O)NCCN1CCCC1",
    "inhibition / %": 2
  },
  {
    "molecule": "O=C(/C=C/c1ccc(Cl)c(Cl)c1)N1CCC(C(O)CN2CCC(c3c[nH]c4ccccc34)CC2)CC1 (configuration not stated)",
    "inhibition / %": -4
  },
  {
    "molecule": "O=S(=O)(c1cc(Cl)sc1Cl)N(CCC(O)(C(F)(F)F)C(F)(F)F)Cc1cccc(O)c1",
    "inhibition / %": 5
  },
  {
    "molecule": "COc1ccc2c(c1)CCCC2C(C)NCC(O)c1cccc(C(F)(F)F)c1 (configuration not stated)",
    "inhibition / %": -3
  },
  {
    "molecule": "CC1CCCCN1CCCNc1ncc2c(-c3ccc(NC(=O)Nc4cc(C(F)(F)F)ccc4F)c(F)c3)nn(C)c2n1 (configuration not stated)",
    "inhibition / %": 2
  }
]
